Hey, just so you know, these numbers are from patent US20180355061A1.

Study System: T1, human PD-1 (soluble analyte in SPR) (human, UniProt Q15116 25-170, limits assumed)
T1 construct: also called CD279; PDCD1
T1 sequence (Q15116 25-170 limits assumed): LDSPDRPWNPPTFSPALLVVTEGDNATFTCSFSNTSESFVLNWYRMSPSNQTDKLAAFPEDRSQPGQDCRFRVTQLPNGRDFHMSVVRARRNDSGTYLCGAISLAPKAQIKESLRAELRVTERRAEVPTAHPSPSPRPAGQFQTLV
Method: SPR (ProteOn XPR36), mAb captured on anti-human IgG Fc, PD-1 as analyte, 25 C
Reported Property: kon (M⁻¹ s⁻¹)
Answer with a number only, understood to be in M⁻¹ s⁻¹.

Sample PD1B756 (antibody, human IgG1, kappa, V domains shown, Humanized PD1B512, IgG1; also called VH PD1H389; VL PD1L472) VH: QITLKESGPTLVKPTQTLTLTCTFSGFSLSTSGMGVSWIRQPPGKALEWLAHIYWDDDKRYSPSLKSRLTITKDTSKNQVVLTMTNMDPVDTGTYYCVRKGYYDYGYVMDYWGQGTLVTVSS VL: DIVMTQSPLSLPVTPGEPASISCRSSKSLLHSNGITYLNWYLQKPGQSPQLLIYQMSNLASGVPDRFSGSGSGTDFTLKISRVEAEDVGVYYCAQNLELPLTFGGGTKVEIKR — what was its kon? 118000

Okay, and PD1B750 (antibody, human IgG1, kappa, V domains shown, Humanized PD1B506, IgG1; also called VH PD1H388; VL PD1L470) VH: QVQLVQSGAEVKKPGASVKVSCKASGYTFTTYWMHWVRQAPGQGLEWMGEINPNNGGINYAQKFQGRVTLTVDKSISTAYMELSRLRSDDTAVYYCTIDYYDYGGYWGQGTLVTVSS VL: DIQMTQSPSSLSASVGDRVTITCKASQNVGTNVAWYQQKPEKAPKSLIYSASYRYSGVPSRFSGSGSGTDFTLTISSLQPEDFATYYCQQYNIYPYTFGQGTKLEIKR ? 359000

Okay, and PD1B849 (antibody, human IgG1, kappa, V domains shown, N55E variant of PD1B750, IgG1; also called VH PD1H403; VL PD1L470) VH: QVQLVQSGAEVKKPGASVKVSCKASGYTFTTYWMHWVRQAPGQGLEWMGEINPNEGGINYAQKFQGRVTLTVDKSISTAYMELSRLRSDDTAVYYCTIDYYDYGGYWGQGTLVTVSS VL: DIQMTQSPSSLSASVGDRVTITCKASQNVGTNVAWYQQKPEKAPKSLIYSASYRYSGVPSRFSGSGSGTDFTLTISSLQPEDFATYYCQQYNIYPYTFGQGTKLEIKR ? 188000
